- ASSAY COMMENT: Clearance in iv dosed rat
- Format: ADME, organism-based
- MEASUREMENT CONTEXT: in vivo
ENDPOINT NAME: clearance (mL/min/kg)
Answers are plain numbers, in mL/min/kg.

Provide only the value of recorded clearance for O=C(N[C@@H]1N=C(c2ccccc2)c2ccccc2N(CC(F)(F)F)C1=O)N1CCC(N2Cc3ccccc3NC2=O)CC1 20

###

- ASSAY COMMENT: Oral bioavailability in rat
- Type: ADME, organism-based
- MEASUREMENT CONTEXT: in vivo
ENDPOINT NAME: bioavailability
Don't forget the unit after the number, please.

Find the measured bioavailability of O=C(N[C@@H]1N=C(c2ccccc2)c2ccccc2N(CC(F)(F)F)C1=O)N1CCC(N2Cc3ccccc3NC2=O)CC1 and report it. 10%
